Value source: PubChem BioAssay (NCI)

Experiment: NCI Yeast Anticancer Drug Screen. Data for the cln2 rad14 strain (AID 165)
Settings: S. cerevisiae cln2 rad14 strain, at 50.0 µM
Compounds without any hit were thinned out: in the full panel of roughly 79,000, 15% have a hit. Activity calls are given as the source filed them. Rule as the data show it: active = growth inhibition above about 70%; inactive = the rest.
Can you answer with just one of these options? t = active, f = inactive

Per the assay record, what outcome was assigned to CC(C(=O)O)C(N)C(=O)O (configuration not stated) ?
t

Which result was noted for this molecule in the test: `Cc1ccc(-c2n[nH]c(=O)n2/N=C\c2ccccc2)cc1`
f

Could you check what this test reported for `CN(C)CCCSc1c2ccccc2nc2cc(NCC(=O)Nc3ccccc3-c3ccccc3NC(=O)CNc3ccc4c(SCCCN(C)C)c5ccccc5nc4c3)ccc12` ?
t

Which outcome was assigned to `O=C(/C=C\C(=O)Nc1cccc(N(Cc2ccccc2)Cc2ccccc2)c1)Nc1cccc(N(Cc2ccccc2)Cc2ccccc2)c1` in this test?
f

Which outcome was entered for the molecule CSC(=S)SC(SC)S(C)(=O)=O (configuration not stated) in this test?
t

Which outcome did this test record for the molecule O=S(=O)(c1ccccc1)C1CN=NC1c1ccccc1 (configuration not stated) ?
t

Recorded test call requested for CCOC1(OCC)C(C)C(c2ccccc2)C(c2ccccc2)C1C (configuration not stated)
t

Assay outcome for `N#Cc1c(Cl)nnc(-c2ccccc2)c1-c1ccccc1` : what was it?
t

Record lookup: outcome of this test for `Cc1cc(Br)c2ccccc2c1N` ?
t

Test call for this molecule, please: O=S(Nc1ccccc1Br)c1ccccc1 (configuration not stated)
f

What did this assay record as the result for `COc1cccc2nc3c(C(=O)NCCN(C)C)cccc3cc12` ?
f

Call for entry Cc1c2cc[n+](C)cc2c(COC2OC(CO)C(O)C2O)c2c3ccccc3n(C)c12 (configuration not stated) :
f

Outcome? `Cc1cc(NC(=S)SCc2ccc(Cl)cc2)c([N+](=O)[O-])cc1C`
t

State the result this test recorded for `Cc1ccc(C(C)(C)C)c(O)c1O` .
t

Please share the test call associated with C1=NN(c2ccccc2)C2c3ccccc3CCCC12 (configuration not stated) .
t

What is the recorded call for this molecule in the test? `Cn1cc(NC(=O)Nc2cc(C(=O)Nc3cc(C(=O)Nc4cc(S(=O)(=O)O)c5cc(S(=O)(=O)O)cc(S(=O)(=O)O)c5c4)n(C)c3)n(C)c2)cc1C(=O)Nc1cc(C(=O)Nc2cc(S(=O)(=O)O)c3cc(S(=O)(=O)O)cc(S(=O)(=O)O)c3c2)n(C)c1`
f

Test call for this molecule, please: `CSc1ccc(/C=C2/C[N+](C)(C)C/C(=C/c3ccc(SC)cc3)C2=O)cc1`
t

// param item: `OCCc1c2ccccc2cc2ccccc12` ; yields the recorded call
f

Identify the outcome logged in this assay for the molecule shown: `Cc1cc(N=Nc2ccccc2)ccc1O`
t

I'd appreciate the recorded outcome for CC(C)CC(N)C(=O)NNc1ccccc1 (configuration not stated) from this test.
t

I'd appreciate the recorded outcome for `O=C(Nc1ccc2c(c1)Cc1cc([N+](=O)[O-])c(F)cc1-2)C(F)(F)F` from this test.
f

// outcome(item) with item = `Cc1ccc(Cl)cc1NN`
t

Please share the test call associated with `CCOC(=O)C(C(=O)OCC)c1ccc([N+](=O)[O-])o1` .
t

Please state the recorded outcome for this molecule: `c1ccc(-c2ccc(-c3cnc(-c4ccc(-c5ccccc5)cc4)o3)cc2)cc1`
f

State the result this test recorded for `O=[N+]([O-])c1c[nH]c2ncnc(SCc3ccccc3)c12` .
t

Which outcome was assigned to `O[C@H](CNCCS)[C@@H](O)CNCCS` in this test?
f

# outcome recorded in this test, key = COc1cc2c(cc1OC)C(N(C)C)C(c1ccccc1)=C2Cl (configuration not stated)
t
